Kindly supply the reported TGI values for the records listed here.
tested on: HCT-116 colon; assay: NCI tumour cell line growth inhibition, 48 h

HCT-116 colon / TGI / `COc1ccc(-c2nc3ncccn3c2-c2ccc(S(C)(=O)=O)cc2)cc1` : value?
> 100 µM

HCT-116 colon / TGI / `CC(=O)O[C@H]1CC[C@]2(C=O)[C@H]3CC[C@]4(C)[C@@H](C5=CC(=O)OC5)CC[C@]4(O)[C@@H]3CC[C@]2(O)C1` : value?
0.5 µM

HCT-116 colon / TGI / `C/C(=N/OCCC(=O)O)C1CC1` : value?
> 100 µM

HCT-116 colon / TGI / `COc1ccc2c(c1)/C(=N/OC(C)=O)c1c-2c(Nc2ccc(/C(C)=N/OC(C)=O)cc2)nc2ccccc12` : value?
> 100 µM

HCT-116 colon / TGI / `Cn1cc(C2=C(c3cccc(Cl)c3)C(=O)NC2=O)c2ccccc21` : value?
> 25 µM

HCT-116 colon / TGI / `c1cc[c]([Sn]([O]c2cccc3cccnc23)([c]2ccccc2)[c]2ccccc2)cc1` : value?
0.0198 µM

HCT-116 colon / TGI / CC1[C@@H]2C[C@@H]3O[C@@]34[C@H]3CCC5Cc6nc7c(nc6C[C@@]5(C)C3(O)CC(=O)[C@@]24CO[C@]12OC(C)(C)CC2O)CC1CC[C@@H]2C3=C[C@H]4O[C@@]5(O[C@@](C)(CO)C[C@@H]5O)C(C)[C@@]4(O)[C@]3(C)[C@@H](O)CC2[C@]1(C)C7 (some centres undefined) : value?
> 3.52 µM

HCT-116 colon / TGI / O=C(O)CCC(NC(=O)/C(=C/c1ccccc1)NC(=O)c1ccccc1)C(=O)O (centres undefined) : value?
> 100 µM

HCT-116 colon / TGI / CCOC(=O)CCC1(C(=O)O[C@@H]2C[C@H](C)CC[C@H]2C(C)C)CCCCC1=O (some centres undefined) : value?
> 100 µM

###

test system: EKVX NSCLC; assay: NCI tumour cell line growth inhibition, 48 h
recordedMetric: TGI (µM)
Enter your answer as a number in µM; do not include the unit.

I have this compound here, `COc1ccc2c(-c3csc(-c4c[nH]c5ccccc45)n3)c[nH]c2c1` , and I need its recorded TGI.
13.3

I have this compound here, `O=C(CSCC(=O)N/N=C\c1cccc(Br)c1)N/N=C\c1cccc(Br)c1` , and I need its recorded TGI.
63.7

I have this compound here, COc1cccc(C2N3CCCCC3[C@@H]3c4[nH]c5ccccc5c4CCN23)c1OC (some centres not stated) , and I need its recorded TGI.
32

I have this compound here, COc1cccc2c1C(=O)c1c(O)c3c(c(O)c1C2=O)C[C@@](O)(C(=O)CO)CC3OC1CC(NCCCCC(OC(C)=O)OC(C)=O)C(O)C(C)O1 (some centres not stated) , and I need its recorded TGI.
0.0143

###

Kindly supply the reported TGI values for the records listed here.
test system: EKVX NSCLC; test: NCI tumour cell line growth inhibition, 48 h

I have this molecule here, `Oc1[nH]c2ccccc2c1N=NC(=S)NCc1ccccn1` , and I need its recorded TGI.
12.5 µM

I have this molecule here, `c1cc[c]([Sn]([O]c2cccc3cccnc23)([c]2ccccc2)[c]2ccccc2)cc1` , and I need its recorded TGI.
0.17 µM

I have this molecule here, C=C(C)[C@@H]1CC[C@@H]2C(=CC[C@]3(C)C([C@H](C)CC/C=C(/C)C(=O)O)CC[C@@]23C)[C@@]1(C)CCC(=O)O (some centres not stated) , and I need its recorded TGI.
> 100 µM

I have this molecule here, COc1cc(C2CC(c3cc(Cl)c(C)cc3O)=NN2c2ccc(S(N)(=O)=O)cc2)cc(OC)c1OC (configuration not stated) , and I need its recorded TGI.
43.7 µM

I have this molecule here, `CCN(CC)C(=O)c1ccc(C)c(N=NN(C)C)c1` , and I need its recorded TGI.
> 100 µM

I have this molecule here, `COC(=O)C12CC(NC(=O)c3csc([C@@H](C[C@H](C(C)C)N(C)C(=O)[C@@H](NC(=O)[C@H]4CCCCN4C)C(C)C)OC(C)=O)n3)(C1)C2` , and I need its recorded TGI.
> 33.3 µM

I have this molecule here, `O=C(Nc1ccc(I)cc1F)c1cc(F)ccc1O` , and I need its recorded TGI.
9.01 µM

I have this molecule here, CCOC(=O)N1c2c(c3ccccc3n2C(=O)OCC)C(=O)C(OC)N1C(=O)OCC (configuration not stated) , and I need its recorded TGI.
> 100 µM

I have this molecule here, `CC(C)S(=O)(=O)ON1C(=O)c2ccc([N+](=O)[O-])cc2C1=O` , and I need its recorded TGI.
> 100 µM

I have this molecule here, `O=S1(=O)OCCOS(=O)(=O)C1S(=O)(=O)c1cccc2ccccc12` , and I need its recorded TGI.
> 100 µM

I have this molecule here, `CN(C)CCSc1nccc(-c2ccc(-c3ccnc(SCCN(C)C)n3)s2)n1` , and I need its recorded TGI.
37.4 µM

I have this molecule here, CC1CC2OC(=N)C1(C#N)C2(C#N)C#N (configuration not stated) , and I need its recorded TGI.
51.1 µM

I have this molecule here, `Cc1nc2ccccc2nc1N1CCCC1` , and I need its recorded TGI.
> 100 µM

I have this molecule here, `C/C(=C\c1ccccc1)n1c(=O)cc(C)n1C` , and I need its recorded TGI.
> 100 µM

I have this molecule here, CC(C)C(NCc1c2ccccc2nc2ccccc12)C(=O)O (configuration not stated) , and I need its recorded TGI.
> 100 µM

I have this molecule here, `CC(=O)N1C(=O)/C(=C\C(=O)c2ccc(Cl)cc2)c2ccccc21` , and I need its recorded TGI.
36.2 µM

I have this molecule here, N#CC(NNC(=O)c1c(Cl)c(Cl)c(Cl)c(Cl)c1-c1nc2ccc(C(=O)c3ccccc3)cc2[nH]1)c1cccc(Oc2ccccc2)c1 (configuration not stated) , and I need its recorded TGI.
37.6 µM

I have this molecule here, Nc1nc(Cl)cc(NCC2CC(O)(CO)C2)n1 (configuration not stated) , and I need its recorded TGI.
> 100 µM

I have this molecule here, `O=C(Nc1ccc(Oc2cccc(Cl)c2)c(Cl)c1)c1cccnc1` , and I need its recorded TGI.
> 50 µM

I have this molecule here, `CC(=O)c1nc(C#N)c(N)o1` , and I need its recorded TGI.
> 100 µM

I have this molecule here, `O=C(O)CNCc1c2ccccc2nc2ccccc12` , and I need its recorded TGI.
> 100 µM

I have this molecule here, `Cc1cc(S(=O)(=O)Nc2n[nH]c(N)n2)c(S)cc1Cl` , and I need its recorded TGI.
> 10 µM
